# MEASURED TARGET: T1, EDIII-DV4 (Dengue virus serotype 4 (DV4), UniProt P09866 580-672)
# T1 construct: also called EDIII of DV4; DV4 EDIII
# T1 sequence (P09866 580-672 limits assumed): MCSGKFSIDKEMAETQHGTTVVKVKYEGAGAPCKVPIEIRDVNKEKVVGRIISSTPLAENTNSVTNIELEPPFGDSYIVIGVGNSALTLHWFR
Give measured Kd for each item. Keep answers brief.
Please answer in the form of a number followed by its unit of measurement.

Tell me the measured Kd of VH_G27_del (antibody, V domains shown) VH: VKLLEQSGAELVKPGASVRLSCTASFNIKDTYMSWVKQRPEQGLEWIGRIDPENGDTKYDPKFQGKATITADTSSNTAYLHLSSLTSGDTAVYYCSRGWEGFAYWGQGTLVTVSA VL: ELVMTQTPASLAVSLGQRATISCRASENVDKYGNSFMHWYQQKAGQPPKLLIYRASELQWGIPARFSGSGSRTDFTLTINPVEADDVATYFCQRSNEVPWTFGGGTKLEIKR , please.
26.4 nM

Now consider VH_A25_del (antibody, V domains shown, also called 4E5-del-25; copies: 2 + 2) VH: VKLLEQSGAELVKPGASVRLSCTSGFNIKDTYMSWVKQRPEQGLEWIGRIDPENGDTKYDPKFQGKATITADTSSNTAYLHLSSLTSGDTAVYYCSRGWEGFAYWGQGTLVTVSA VL: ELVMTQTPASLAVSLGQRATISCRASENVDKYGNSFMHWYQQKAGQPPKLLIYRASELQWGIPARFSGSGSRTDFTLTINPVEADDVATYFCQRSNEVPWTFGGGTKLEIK and answer again.
236 nM

Now consider VH_G27P (antibody, V domains shown, also called 4E5-G27P; copies: 2 + 2) VH: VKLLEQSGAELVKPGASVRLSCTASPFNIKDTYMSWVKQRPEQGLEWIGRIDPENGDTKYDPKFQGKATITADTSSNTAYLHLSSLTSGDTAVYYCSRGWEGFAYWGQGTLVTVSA VL: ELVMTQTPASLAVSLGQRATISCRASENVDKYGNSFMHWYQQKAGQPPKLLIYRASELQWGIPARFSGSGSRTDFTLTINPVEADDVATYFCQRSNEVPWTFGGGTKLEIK and answer again.
1970 nM

Now consider VH_Y106R (antibody, V domains shown, copies: 2 + 2) VH: VKLLEQSGAELVKPGASVRLSCTASGFNIKDTYMSWVKQRPEQGLEWIGRIDPENGDTKYDPKFQGKATITADTSSNTAYLHLSSLTSGDTAVYYCSRGWEGFARWGQGTLVTVSA VL: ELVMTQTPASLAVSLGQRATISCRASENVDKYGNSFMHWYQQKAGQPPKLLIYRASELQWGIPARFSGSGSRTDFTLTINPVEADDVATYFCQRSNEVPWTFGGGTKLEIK and answer again.
272 nM

Now consider VH_G27A (antibody, V domains shown) VH: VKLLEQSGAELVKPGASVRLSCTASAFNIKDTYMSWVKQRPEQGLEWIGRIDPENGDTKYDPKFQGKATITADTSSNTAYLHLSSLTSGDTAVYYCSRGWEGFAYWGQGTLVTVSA VL: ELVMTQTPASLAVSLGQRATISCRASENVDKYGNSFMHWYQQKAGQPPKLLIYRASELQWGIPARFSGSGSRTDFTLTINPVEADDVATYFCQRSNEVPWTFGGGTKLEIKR and answer again.
43.2 nM
